Listing of entries alongside the reported Ca.
- Organism: Rattus norvegicus
- protocol: Open TG-GATES - Regimen: Daily Repeat
- Format: toxicity, organism-based, Sprague-Dawley
- Design: regimen Daily Repeat, gender Male, age 6 weeks
- test_parameters: in vivo, po, 0 mg/kg, 72 h, tissue Plasma, route gavage, dose level Control, time 3 day
endpoint_name: Ca (mg/dL)

* CN1C(=O)OC(C)(C)C1=O | 11.2
* O=C(O)c1cccnc1 | 10.7
* Nc1nc(N)c2nc(-c3ccccc3)c(N)nc2n1 | 10.9
* CC(C)C(=O)Nc1ccc([N+](=O)[O-])c(C(F)(F)F)c1 [FLUTAMIDE] | 10.5
* CC(=N)S [THIOACETAMIDE] | 10.4
* Oc1ncnc2[nH]ncc12 | 11.4
* CC(=O)Oc1cc(C(C)C)c(OCCN(C)C)cc1C | 10.8
* CC(C)(S)[C@@H](N)C(=O)O | 11.1
* O=C(N[C@H](CO)[C@H](O)c1ccc([N+](=O)[O-])cc1)C(Cl)Cl | 11.3
* CCN1CCCC1CNC(=O)c1cc(S(N)(=O)=O)ccc1OC (stereo not given) [SULPIRIDE] | 11.1
